System: anti-miR-21 oligo(2′-O-methylribonucleotide)
Assay: DLS of dendriplexes with anti-miR-21 oligonucleotide
Format: physicochemical
Conditions: CR 2.5, anti-miR-21 500 nM, 0.9% NaCl
ENDPOINT: mean diameter of dendriplex (μm)
Use μm as the unit, but write only the number.

• CCCCCCCCCCCCNC(=O)c1cc(OCCC[Si](CCCSCC(=O)NCCC[P+](c2ccccc2)(c2ccccc2)c2ccccc2)(CCCSCC(=O)NCCC[P+](c2ccccc2)(c2ccccc2)c2ccccc2)CCCSCC(=O)NCCC[P+](c2ccccc2)(c2ccccc2)c2ccccc2)cc(OCCC[Si](CCCSCC(=O)NCCC[P+](c2ccccc2)(c2ccccc2)c2ccccc2)(CCCSCC(=O)NCCC[P+](c2ccccc2)(c2ccccc2)c2ccccc2)CCCSCC(=O)NCCC[P+](c2ccccc2)(c2ccccc2)c2ccccc2)c1 [DnP6-1C12] = 0.8

Kindly consider the entry below.
mean diameter of dendriplex measured on CCCCCCCCCCCCNC(=O)c1ccc(OCCC[Si](CCCSCC(=O)NCCC[P+](c2ccccc2)(c2ccccc2)c2ccccc2)(CCCSCC(=O)NCCC[P+](c2ccccc2)(c2ccccc2)c2ccccc2)CCCSCC(=O)NCCC[P+](c2ccccc2)(c2ccccc2)c2ccccc2)cc1 [DnP3-1C12] = 0.9

Values from paper PMC11632778
